Test system: K-562 leukemia
Test: NCI-60 one-dose screen, 48 h (100 = growth as untreated, 0 = no growth, -100 = all killed)
Details: 10 µM unless noted
This is part of a sample that, as a whole, favours compounds with a hit. Of some 83,000 tested, about 20% had one in any assay.
Lab note: compare growth with 60%, writing Fulfilled if less and Not fulfilled if equal or more.

COc1cc(NC(=O)c2cc(OC)c3ccn(C)c3c2)cc2c1C[C@]1(C)CC[C@@H](O)C(C)(C)[C@H]1O2 = Fulfilled
CCOC(=O)n1cnc2c(Cl)ncnc21 = Not fulfilled
NS(=O)(=O)c1ccc(CCN2C(=O)/C(=C\c3ccc(Cl)cc3)C=C2c2ccc(Oc3ccccc3)cc2)cc1 = Fulfilled
O=C(Nc1ccc(-n2ccc3c(NC(=O)c4ccccc4)nccc32)cc1)Nc1cccc(C(F)(F)F)c1 = Fulfilled
O=C(Nc1cccc([N+](=O)[O-])c1)c1ccc2ccccc2c1O = Fulfilled

Quick check: growth of O=C(Nc1ccc(-n2ccc3c(NC(=O)c4ccccc4)ncnc32)cc1)c1cccc(C(F)(F)F)c1 under 60%? Fulfilled

Quick check: growth of O=c1nc(N2CCOCC2)oc2c(-c3cccc4ccccc34)cccc12 under 60%? Not fulfilled

Quick check: growth of OC(COc1ccccc1Cl)CN1CCN(c2ccc(Cl)cc2)CC1 (centres undefined) under 60%? Not fulfilled

Quick check: growth of C=CC(C)(O)CCC1C(=C)CCC2C(C)(C)CCCC12C (centres undefined) under 60%? Not fulfilled

Quick check: growth of O=C1COc2ccccc2C(=O)N1CCCCN1CCCCC1 under 60%? Fulfilled

Quick check: growth of COc1ccc(/C=C2/C(=O)Nc3cc(Cl)c(-c4csc(N)n4)cc32)cc1 under 60%? Fulfilled

Quick check: growth of COc1ccc2c(c1)C(=O)/C(=C/c1ccc(OCC(=O)c3ccc(Cl)cc3)cc1)O2 under 60%? Fulfilled

###

System: CAKI-1 renal
Assay: NCI-60 one-dose screen, 48 h
Settings: 10 µM
The panel holds about 83,000 compounds, 20% with a hit somewhere; the sample as a whole holds those more often. The source made the active and inactive calls. Rule for the calls: active = growth percent below 10; inactive = the rest.
Permitted responses: active, inactive

CC(Cc1cccc(C(F)(F)F)c1)NCCOC(=O)c1ccccc1 (centres undefined) = inactive

For this molecule, state the assay outcome: CCN(CC)CC(=O)Nc1c(C)cccc1C inactive

For this molecule, state the assay outcome: O=C(Nc1ccc(-n2ccc3c(NC(=O)c4ccccc4)ncnc32)cc1)Nc1cccc(Cl)c1Cl active

For this molecule, state the assay outcome: O=C1COc2ccccc2C(=O)N1CCCCN1CCCCC1 inactive

For this molecule, state the assay outcome: CN1CCN(CC(=O)N(C)c2ccc(N=C(c3ccccc3)c3c(O)[nH]c4ccc(C#N)cc34)cc2)CC1 inactive

For this molecule, state the assay outcome: COc1ccc(C[C@H](N)C(=O)N[C@@H]2[C@@H](CO)OC(n3cnc4c(N(C)C)ncnc43)[C@@H]2O)cc1 (some centres undefined) inactive

For this molecule, state the assay outcome: NCC(=O)NS(=O)(=O)OC[C@H]1O[C@@H](n2cnc3c(N)ncnc32)[C@H](O)[C@@H]1O active

For this molecule, state the assay outcome: CCn1c(SC)nnc1-c1cc2c([nH]c3ccccc32)c(-c2cccc(O)c2)n1 inactive

For this molecule, state the assay outcome: CC(CCC(=O)O)[C@H]1CCC2C3C(=O)C[C@@H]4CC(=O)CC[C@]4(C)C3CC(=O)[C@@]21C (some centres undefined) inactive

Reference source: PubChem BioAssay (NCI)
